Reference source for all entries: patent US8106055B2

inhibition at 10 µM values, listed per item
- Target Or Test System: human bradykinin 1 receptor (B1R) (Homo sapiens, UniProt P46663)
- Construct: expressed in transfected cells; host or cells: CHO K1 cells
- Sequence (P46663 whole entry): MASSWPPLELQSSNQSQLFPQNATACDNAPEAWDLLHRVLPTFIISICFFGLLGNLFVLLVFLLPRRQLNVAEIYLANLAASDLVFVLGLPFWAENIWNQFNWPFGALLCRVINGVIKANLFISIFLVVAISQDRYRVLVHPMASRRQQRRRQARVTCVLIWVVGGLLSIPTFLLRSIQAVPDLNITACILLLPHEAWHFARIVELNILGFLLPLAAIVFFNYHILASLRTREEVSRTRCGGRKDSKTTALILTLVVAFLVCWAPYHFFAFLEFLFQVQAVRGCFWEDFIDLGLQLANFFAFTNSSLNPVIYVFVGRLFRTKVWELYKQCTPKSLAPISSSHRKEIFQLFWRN
- Experiment: Functional investigation on the human bradykinin 1 receptor (B1R), Ca2+ FLIPR assay in CHO K1 hB1R cells
- Type: cell-based
- Conditions: CHO-K1, B1R antagonism human; test substance 10 μM; Ca2+ FLIPR, CHO K1 hB1R cells; read-out: B1R Ant. h [10 μM] % Inhibition
Reply with just the number (in %).

See these solved cases before continuing.
> print(dat)
                                   molecule                     target.or.test.system  assay.value
1  COc1cc(C)c(S(=O)(=O)N2CCC(OCC(=O)NC3CCC(C(CCc4ccccc4)N4CCCCC4)CC3)C2)c(C)c1 (stereo not shown) [Example 669]  human bradykinin 1 receptor (B1R) (Homo sapiens, UniProt P46663)          103
2  O=C(COCC1CCCN(S(=O)(=O)c2c(Cl)cc(Cl)cc2Cl)C1)NC1CCC(C(CCc2ccccc2)N2CCOCC2)CC1 (stereo not shown) [Example 741]  human bradykinin 1 receptor (B1R) (Homo sapiens, UniProt P46663)           -5
3  CN(C)C(c1cccs1)C1CCC(CCNC(=O)COC2CCN(S(=O)(=O)c3cccc(C(F)(F)F)c3)C2)CC1 (stereo not shown) [Example 96]  human bradykinin 1 receptor (B1R) (Homo sapiens, UniProt P46663)            4

Using the record for COc1cc(C)c(S(=O)(=O)N2CCCC2COCC(=O)NCC2CCC(C(CCc3ccccc3)N3CCCC3)CC2)c(C)c1 (stereo not shown) [Example 750] , report its inhibition at 10 µM.
101

Which value of inhibition at 10 µM has been reported for COc1ccc(S(=O)(=O)N(C)CCOCC(=O)NCC2CCC(C(c3cccs3)N(C)C)CC2)cc1OC (stereo not shown) [Example 127] in the records?
-13

Quick one: inhibition at 10 µM for COc1ccc(S(=O)(=O)N2Cc3ccccc3CC2COCC(=O)NCC2CCC(C(c3ccccc3)N(C)C)CC2)cc1 (stereo not shown) [Example 19] ?
63

Return reported inhibition at 10 µM; argument: CN(CCOCC(=O)NCC1CCC(C(c2ccccc2)N2CCOCC2)CC1)S(=O)(=O)c1c(Cl)cc(C(F)(F)F)cc1Cl (stereo not shown) [Example 727]
16
